molecular target: androgen receptor (Homo sapiens, UniProt P10275); experiment: AR antagonist cell assay (MDA-MB453-MMTV clone 54-19 luciferase reporter, 100 pM DHT); assay type: cell-based; details: read-out: AR Cell IC50; MDA-MB453-MMTV clone 54-19, inhibition of 100 pM DHT induction, 17 hr; mean of multiple tests
Sequence (P10275 whole entry Q868H, form open): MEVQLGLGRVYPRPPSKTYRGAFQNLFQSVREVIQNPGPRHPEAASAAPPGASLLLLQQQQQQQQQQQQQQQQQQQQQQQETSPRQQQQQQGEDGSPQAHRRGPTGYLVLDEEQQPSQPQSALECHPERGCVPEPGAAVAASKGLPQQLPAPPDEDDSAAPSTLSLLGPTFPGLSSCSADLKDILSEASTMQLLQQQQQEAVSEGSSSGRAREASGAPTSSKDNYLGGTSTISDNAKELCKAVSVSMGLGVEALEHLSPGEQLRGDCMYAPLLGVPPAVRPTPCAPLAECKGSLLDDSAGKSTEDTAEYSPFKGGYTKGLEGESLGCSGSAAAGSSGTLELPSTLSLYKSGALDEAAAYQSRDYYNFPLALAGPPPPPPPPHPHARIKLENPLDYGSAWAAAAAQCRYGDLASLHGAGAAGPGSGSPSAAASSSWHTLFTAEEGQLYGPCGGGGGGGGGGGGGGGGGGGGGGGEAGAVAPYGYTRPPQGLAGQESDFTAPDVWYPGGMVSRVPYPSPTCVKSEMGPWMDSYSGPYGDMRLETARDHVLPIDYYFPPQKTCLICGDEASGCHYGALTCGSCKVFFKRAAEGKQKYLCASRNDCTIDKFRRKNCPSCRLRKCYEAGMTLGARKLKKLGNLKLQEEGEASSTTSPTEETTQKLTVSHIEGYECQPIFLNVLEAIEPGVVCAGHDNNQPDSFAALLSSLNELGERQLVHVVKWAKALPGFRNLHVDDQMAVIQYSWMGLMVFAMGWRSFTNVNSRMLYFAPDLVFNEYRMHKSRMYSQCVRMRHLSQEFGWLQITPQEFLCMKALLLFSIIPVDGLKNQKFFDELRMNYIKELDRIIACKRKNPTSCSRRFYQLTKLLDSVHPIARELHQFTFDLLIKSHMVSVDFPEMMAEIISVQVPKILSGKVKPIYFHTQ
MEASURED PROPERTY: pIC50
Units for pIC50: none; it is -log10 of a concentration expressed in mol/L.

pIC50 reported for this compound CCCC(Oc1ccc(C#N)c(Cl)c1)C(=O)NCCc1ccc(O)cc1 (stereo not drawn) : 7.06

Lookup result for CCCC(Oc1ccc(C#N)c(Cl)c1)C(=O)NCc1ccccc1 (stereo not drawn) ; measured pIC50: 7.57

Summary for this compound, CCC[C@H](Oc1ccc(C#N)c(Cl)c1)C(=O)NCc1ccccc1 : pIC50 is 8.15

Kindly note the recorded pIC50 for CCC[C@H](Oc1ccc(C#N)c(Cl)c1)C(=O)NCCc1ccc(O)cc1 , which is 7.06

So for CC(C)CC(Oc1ccc(C#N)c(C(F)(F)F)c1)C(=O)N[C@H](C)c1ccc(O)cc1 (stereo in doubt) , the logged pIC50 turned out to be 7.72

Reported pIC50 of CCCC(Oc1ccc(C#N)c(C(F)(F)F)c1)C(=O)NCCc1c[nH]c2ccc(OC)cc12 (stereo not drawn) : 7.59

* * *

biological target: human androgen receptor (hAR) (Homo sapiens, UniProt P10275); construct: made in house; host or cells: baculovirus/Sf9 insect cells (crude extract); assay: Competitive binding analysis on baculovirus/Sf9 generated hAR extracts with 3H-DHT tracer; settings: hAR extract, 1 nM 3H-DHT, one hour at 4° C; mean of multiple tests; read-out: AR Binding IC50
Sequence (P10275 whole entry): as the sequence (P10275 whole entry Q868H, form open) above, with H868Q counted along it
Would you kindly list IC50 for each of these compounds?
Numeric only. Scale: µM

Reported human androgen receptor (hAR) (Homo sapiens, UniProt P10275) IC50 for item CC(C)CC(Oc1ccc(C#N)c(C(F)(F)F)c1)C(=O)N[C@@H](C)c1ccc(O)cc1 (stereo in doubt) [Example 120] was 0.098

Response field IC50 (human androgen receptor (hAR) (Homo sapiens, UniProt P10275)) for item CC(C)CC(Oc1ccc(C#N)c(C(F)(F)F)c1)C(=O)N(CCO)C(C)C (centres unmarked) [Example 79] : 3.13

Response field IC50 (human androgen receptor (hAR) (Homo sapiens, UniProt P10275)) for item Cc1cccc(CNC(=O)C(CC(C)C)Oc2ccc(C#N)c(C(F)(F)F)c2)c1 (centres unmarked) [Example 37] : 0.041

Case CCCC(Oc1ccc(C#N)c(C(F)(F)F)c1)C(=O)NCCSC (centres unmarked) [Example 90] , human androgen receptor (hAR) (Homo sapiens, UniProt P10275), IC50 recorded as 0.736

Cc1c(O)cccc1NC(=O)C(CC(C)C)Oc1ccc(C#N)c(C(F)(F)F)c1 (centres unmarked) [Example 84] tested on human androgen receptor (hAR) (Homo sapiens, UniProt P10275) gave IC50: 0.112

Bench note, human androgen receptor (hAR) (Homo sapiens, UniProt P10275): entry CC(C)CC(Oc1ccc(C#N)c(C(F)(F)F)c1)C(=O)NC(C)C (centres unmarked) [Example 2] , its IC50 = 0.064

Case CCCC(Oc1ccc(C#N)c(C(F)(F)F)c1)C(=O)NCCc1ccc(C)cc1 (centres unmarked) [Example 50] , human androgen receptor (hAR) (Homo sapiens, UniProt P10275), IC50 recorded as 0.399

Value (IC50, human androgen receptor (hAR) (Homo sapiens, UniProt P10275)) for record COc1ccc([C@@H](C)NC(=O)C(CC(C)C)Oc2ccc(C#N)c(C(F)(F)F)c2)cc1 (stereo in doubt) [Example 110] = 0.34
